Attribution: PubChem BioAssay AID588471

experimental.system: Protein-arginine deiminase type-2 (Homo sapiens) (UniProt Q9Y2J8)
Sequence (Q9Y2J8 whole entry, looked up): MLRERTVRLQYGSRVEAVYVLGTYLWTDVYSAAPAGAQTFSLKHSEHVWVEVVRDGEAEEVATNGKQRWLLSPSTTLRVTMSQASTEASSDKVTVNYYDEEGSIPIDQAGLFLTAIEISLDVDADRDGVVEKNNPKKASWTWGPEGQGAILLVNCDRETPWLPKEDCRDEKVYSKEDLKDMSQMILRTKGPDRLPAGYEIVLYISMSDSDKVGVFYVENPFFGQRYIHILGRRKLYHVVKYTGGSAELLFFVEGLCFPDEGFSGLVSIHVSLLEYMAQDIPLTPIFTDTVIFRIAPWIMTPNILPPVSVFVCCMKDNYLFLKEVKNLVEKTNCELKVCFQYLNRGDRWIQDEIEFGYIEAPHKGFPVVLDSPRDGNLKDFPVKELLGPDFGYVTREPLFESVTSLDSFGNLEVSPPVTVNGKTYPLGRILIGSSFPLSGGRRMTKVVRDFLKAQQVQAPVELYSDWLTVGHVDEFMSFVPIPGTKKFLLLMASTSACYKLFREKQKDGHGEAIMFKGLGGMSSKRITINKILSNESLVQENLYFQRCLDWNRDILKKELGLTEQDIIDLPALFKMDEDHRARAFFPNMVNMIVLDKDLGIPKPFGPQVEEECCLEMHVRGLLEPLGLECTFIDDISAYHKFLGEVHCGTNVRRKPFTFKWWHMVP
method.summary: PubChem AID 588471
measurement.setup: recombinant PAD1-4, BAEE citrulline colorimetric absorbance; PAD2
metric.name: IC50

Task: Give reported IC50 value for NC1=CC(=O)c2ccc(-c3ccccn3)nc2C1=O
Output: 320 nM

----------
experimental.system: Protein-arginine deiminase type-3 (Homo sapiens) (UniProt Q9ULW8)
Sequence (Q9ULW8 whole entry, looked up): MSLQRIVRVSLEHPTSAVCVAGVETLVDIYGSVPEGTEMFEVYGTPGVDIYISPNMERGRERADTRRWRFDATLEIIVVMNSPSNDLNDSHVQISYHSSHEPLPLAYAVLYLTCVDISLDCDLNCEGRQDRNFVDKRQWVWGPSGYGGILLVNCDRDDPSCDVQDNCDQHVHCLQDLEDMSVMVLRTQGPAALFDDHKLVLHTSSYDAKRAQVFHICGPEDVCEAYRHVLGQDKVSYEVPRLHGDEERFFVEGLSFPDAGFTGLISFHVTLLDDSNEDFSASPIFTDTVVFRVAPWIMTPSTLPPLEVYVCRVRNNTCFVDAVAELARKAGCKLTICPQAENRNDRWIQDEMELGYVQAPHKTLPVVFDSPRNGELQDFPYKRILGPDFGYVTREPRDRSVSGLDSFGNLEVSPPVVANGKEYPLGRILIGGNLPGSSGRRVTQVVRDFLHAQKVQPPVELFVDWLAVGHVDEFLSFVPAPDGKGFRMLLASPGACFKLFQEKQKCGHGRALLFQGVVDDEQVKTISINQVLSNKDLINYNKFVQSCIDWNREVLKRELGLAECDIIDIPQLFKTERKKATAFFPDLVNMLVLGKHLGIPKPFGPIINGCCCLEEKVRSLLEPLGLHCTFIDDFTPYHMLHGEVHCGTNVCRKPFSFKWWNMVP
method.summary: PubChem AID 588471
measurement.setup: recombinant PAD1-4, BAEE citrulline colorimetric absorbance; PAD3
metric.name: IC50

Task: Give reported IC50 value for NC1=CC(=O)c2ccc(-c3ccccn3)nc2C1=O
Output: 130 nM

----------
experimental.system: Protein-arginine deiminase type-4 (Homo sapiens)
method.summary: PubChem AID 588471
measurement.setup: recombinant PAD1-4, BAEE citrulline colorimetric absorbance; PAD4
metric.name: IC50

Task: Give reported IC50 value for NC1=CC(=O)c2ccc(-c3ccccn3)nc2C1=O
Output: 640 nM

----------
experimental.system: Protein-arginine deiminase type-1 (Homo sapiens)
method.summary: PubChem AID 588471
measurement.setup: recombinant PAD1-4, BAEE citrulline colorimetric absorbance; PAD1
metric.name: pIC50
Quick note: pIC50 means taking -log10 of the concentration in moles per liter.

Task: Give reported pIC50 value for NC1=CC(=O)c2ccc(-c3ccccn3)nc2C1=O
Output: 6.02
